The reported measurements were obtained from paper PMC12154214.

Here, each record is paired with measured IC50 data.
target: DPP-IV (Sus scrofa, UniProt P22411); construct: purchased Sigma-Aldrich D7052; host or cells: porcine kidney (tissue-derived); test: In vitro DPP-IV inhibition assay; assay type: biochemical, porcine; conditions: synthesized peptides, in vitro enzymatic assay
Sequence (P22411 whole entry): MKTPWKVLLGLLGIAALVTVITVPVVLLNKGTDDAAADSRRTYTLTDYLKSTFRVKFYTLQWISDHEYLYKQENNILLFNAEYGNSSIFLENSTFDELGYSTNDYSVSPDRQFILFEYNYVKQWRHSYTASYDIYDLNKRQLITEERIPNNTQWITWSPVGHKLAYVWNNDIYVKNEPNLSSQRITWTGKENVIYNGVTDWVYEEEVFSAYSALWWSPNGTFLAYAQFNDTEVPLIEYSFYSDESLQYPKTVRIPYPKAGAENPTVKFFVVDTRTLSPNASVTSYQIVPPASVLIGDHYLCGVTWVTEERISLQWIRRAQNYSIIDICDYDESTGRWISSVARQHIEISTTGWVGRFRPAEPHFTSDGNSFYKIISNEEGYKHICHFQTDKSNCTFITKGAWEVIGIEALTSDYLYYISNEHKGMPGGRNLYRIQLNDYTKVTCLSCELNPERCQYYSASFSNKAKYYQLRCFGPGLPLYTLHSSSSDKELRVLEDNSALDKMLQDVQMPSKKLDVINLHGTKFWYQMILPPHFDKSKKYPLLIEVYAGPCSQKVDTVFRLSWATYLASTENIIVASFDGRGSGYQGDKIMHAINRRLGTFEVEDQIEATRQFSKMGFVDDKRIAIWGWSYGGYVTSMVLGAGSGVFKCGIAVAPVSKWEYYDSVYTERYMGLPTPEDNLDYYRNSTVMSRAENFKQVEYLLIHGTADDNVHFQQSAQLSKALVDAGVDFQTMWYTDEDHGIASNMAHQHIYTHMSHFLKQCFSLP
No end group written: not given here.
endpoint.label: IC50 (µM)

1. GGKPSSMT; 839
2. APDSGNFR; 73.1
3. GGHLFFC [GGHLFFC]; 642
4. GPFPLPD [GPFPLPD]; 99.1

----------
design: species or system Sprague–Dawley rats; conditions: rat, in vivo, po, 16 mg/kg
No end group written: not given here.
Here, each record is paired with measured half-life data.
endpoint.label: half-life (h)

1. APDSGNFR; 1.82
2. GPFPLPD [GPFPLPD]; 1.65

----------
parameters: species or system Sprague–Dawley rats; settings: rat, in vivo, po, 16 mg/kg
No end group written: not given here.
Here, each record is paired with measured Tmax data.
endpoint.label: Tmax (h)

1. GPFPLPD [GPFPLPD]; 1
2. APDSGNFR; 1

----------
set-up: species or system Sprague–Dawley rats; details: rat, in vivo, po, 16 mg/kg
No end group written: not given here.
endpoint.label: Cmax (ng/mL)

1. GPFPLPD [GPFPLPD]; 26100
2. APDSGNFR; 44600
